target: AAV5 (adeno-associated virus serotype 5); assay: SPR, AAV on CM5 chip
endpoint_name: kon (M⁻¹ s⁻¹)
Answer format: numeric, M⁻¹ s⁻¹ implied, no suffix.

I have this binder here, A4-C2 (VHH) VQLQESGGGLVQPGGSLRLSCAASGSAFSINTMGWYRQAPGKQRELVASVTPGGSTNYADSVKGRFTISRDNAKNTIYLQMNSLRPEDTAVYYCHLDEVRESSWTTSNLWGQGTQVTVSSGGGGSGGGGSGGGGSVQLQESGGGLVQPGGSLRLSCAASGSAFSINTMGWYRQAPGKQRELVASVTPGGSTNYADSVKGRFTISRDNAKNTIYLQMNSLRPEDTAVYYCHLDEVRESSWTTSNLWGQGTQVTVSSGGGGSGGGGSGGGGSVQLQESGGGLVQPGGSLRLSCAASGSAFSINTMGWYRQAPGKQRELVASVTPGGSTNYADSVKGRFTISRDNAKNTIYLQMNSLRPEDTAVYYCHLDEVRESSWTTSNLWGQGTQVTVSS , and I need its recorded kon.
194000

The measured values listed here are drawn from patent US20260193326A1.
